- Test method notes: Stability evaluation of solution formulation (Experimental Example 2)
- Assay type: physicochemical
- Condition: solution formulation, pH4.0, 0 week
Property: Production rate of Alvocidib (%)

compound="CCCN(C[C@H]1CCCCN1)C(=O)Oc1cc(O)c2c(=O)cc(-c3ccccc3Cl)oc2c1[C@H]1CCN(C)C[C@H]1O [Example 6]" property="Production rate of Alvocidib" experimental_value=0.5
compound="CCN(C[C@H]1CCCCN1)C(=O)Oc1cc(O)c2c(=O)cc(-c3ccccc3Cl)oc2c1[C@H]1CCN(C)C[C@H]1O [Example 2]" property="Production rate of Alvocidib" experimental_value=0.0
compound="CCCN(C[C@@H]1CCCCN1)C(=O)Oc1cc(O)c2c(=O)cc(-c3ccccc3Cl)oc2c1[C@H]1CCN(C)C[C@H]1O [Example 5]" property="Production rate of Alvocidib" experimental_value=0.2
